Test system: Cutibacterium acnes
test_description: Antibacterial activity against drug-resistant Propionibacterium acnes SW11 after 48 hrs by broth microdilution method
Format: functional
The following compounds are listed with their measured MIC values.

smiles_str	bound_type	MIC / µg/mL
CC[C@H]1OC(=O)[C@H](C)[C@@H](O[C@H]2C[C@@](C)(OC)[C@@H](O)[C@H](C)O2)[C@H](C)[C@@H](O[C@@H]2O[C@H](C)C[C@H](N(C)C)[C@H]2O)[C@](C)(OC)C[C@@H](C)C(=O)[C@H](C)[C@H]2[C@H](SCCn3cnc4cccnc43)C(=O)O[C@@]21C	≤	0.06
CCC[C@@H]1C[C@@H](C(=O)N[C@@H]([C@H]2O[C@H](SC)[C@H](O)[C@@H](O)[C@H]2O)[C@H](C)Cl)N(C)C1	=	0.5
CN(C)[C@@H]1C(O)=C(C(N)=O)C(=O)[C@@]2(O)C(O)=C3C(=O)c4c(O)cccc4[C@@](C)(O)[C@H]3C[C@@H]12	=	2
CC[C@H]1OC(=O)[C@H](C)[C@@H](O[C@H]2C[C@@](C)(OC)[C@@H](O)[C@H](C)O2)[C@H](C)[C@@H](O[C@@H]2O[C@H](C)C[C@H](N(C)C)[C@H]2O)[C@](C)(O)C[C@@H](C)C(=O)[C@H](C)[C@@H](O)[C@]1(C)O	=	0.125

----------
Tested on: Corynebacterium jeikeium
test_description: Antibacterial activity against Corynebacterium jeikeium after 48 hrs by broth microdilution method
Type: functional

smiles_str	target_desc	MIC
CCC[C@@H]1C[C@@H](C(=O)N[C@@H]([C@H]2O[C@H](SC)[C@H](O)[C@@H](O)[C@H]2O)[C@H](C)Cl)N(C)C1	Corynebacterium jeikeium	7.97 µg/mL
CN(C)[C@@H]1C(O)=C(C(N)=O)C(=O)[C@@]2(O)C(O)=C3C(=O)c4c(O)cccc4[C@@](C)(O)[C@H]3C[C@@H]12	Corynebacterium jeikeium	5.16 µg/mL
CC[C@H]1OC(=O)[C@H](C)[C@@H](O[C@H]2C[C@@](C)(OC)[C@@H](O)[C@H](C)O2)[C@H](C)[C@@H](O[C@@H]2O[C@H](C)C[C@H](N(C)C)[C@H]2O)[C@](C)(O)C[C@@H](C)C(=O)[C@H](C)[C@@H](O)[C@]1(C)O	Corynebacterium jeikeium	1.47 µg/mL
CC[C@H]1OC(=O)[C@H](C)[C@@H](O[C@H]2C[C@@](C)(OC)[C@@H](O)[C@H](C)O2)[C@H](C)[C@@H](O[C@@H]2O[C@H](C)C[C@H](N(C)C)[C@H]2O)[C@](C)(OC)C[C@@H](C)C(=O)[C@H](C)[C@H]2[C@H](SCCn3cnc4cccnc43)C(=O)O[C@@]21C	Corynebacterium jeikeium	0.88 µg/mL

----------
The following compounds are listed with their measured MIC values.
Test system: Cutibacterium acnes
test_description: Antibacterial activity against drug-resistant Propionibacterium acnes D-04/97 after 48 hrs by broth microdilution method
Assay type: functional

compound	bound_type	MIC, µg/mL
CN(C)[C@@H]1C(O)=C(C(N)=O)C(=O)[C@@]2(O)C(O)=C3C(=O)c4c(O)cccc4[C@@](C)(O)[C@H]3C[C@@H]12 [TETRACYCLINE]	=	1
CCC[C@@H]1C[C@@H](C(=O)N[C@@H]([C@H]2O[C@H](SC)[C@H](O)[C@@H](O)[C@H]2O)[C@H](C)Cl)N(C)C1 [CLINDAMYCIN]	=	0.125
CC[C@H]1OC(=O)[C@H](C)[C@@H](O[C@H]2C[C@@](C)(OC)[C@@H](O)[C@H](C)O2)[C@H](C)[C@@H](O[C@@H]2O[C@H](C)C[C@H](N(C)C)[C@H]2O)[C@](C)(O)C[C@@H](C)C(=O)[C@H](C)[C@@H](O)[C@]1(C)O [ERYTHROMYCIN]	≤	0.06
CC[C@H]1OC(=O)[C@H](C)[C@@H](O[C@H]2C[C@@](C)(OC)[C@@H](O)[C@H](C)O2)[C@H](C)[C@@H](O[C@@H]2O[C@H](C)C[C@H](N(C)C)[C@H]2O)[C@](C)(OC)C[C@@H](C)C(=O)[C@H](C)[C@H]2[C@H](SCCn3cnc4cccnc43)C(=O)O[C@@]21C	≤	0.06
